assay: growth inhibition of non-replicating M. tuberculosis (AID 488890); conditions: Mycobacterium tuberculosis non-replicating, at 25 µM, stronger effect = higher value;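 also: plate controls were DMSO cells for no effect and high antibiotic wells for full effect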
Hit rate of the full screen: of about 320,000 compounds, about 1,300 (0.41%) were called active. About 3% were inconclusive and are not listed. Not all results are given here. Results with a measured potency or affinity are listed apart.
Each entry below lists one item and its recorded inhibition value.
Only the number, expressed in %, is required.

[[record]]
compound = "O=C(NCCCN1CCOCC1)c1c(O)c2ccccc2[nH]c1=O"
outcome_measure = "inhibition"
reading = -0.01


(Q) Return inhibition (reported value) for this compound: COC(C(=O)Nc1ccc(S(=O)(=O)Nc2ccc(F)cc2)cc1)c1ccccc1 (configuration not stated)
(A) 30.9

(Q) Return inhibition (reported value) for this compound: "O=C1CN(C(=O)COC(=O)CCC(=O)c2ccc(Cl)cc2)c2ccccc2N1"
(A) 16.1

(Q) Return inhibition (reported value) for this compound: Cc1ccc(C(=O)OC(C)C(=O)NC2CCCCC2C)s1 (configuration not stated)
(A) -2.95

(Q) Return inhibition (reported value) for this compound: "COc1cc2[nH]c(=O)c(C(=O)NCCCN3CCOCC3)c(O)c2cc1OC"
(A) 1.72

(Q) Return inhibition (reported value) for this compound: "Cc1ccc(NC(=O)COC(=O)Cc2c[nH]c3ccccc23)cc1C"
(A) 35.7

(Q) Return inhibition (reported value) for this compound: "CS(=O)(=O)c1ccc(Cl)c(NC(=O)COC(=O)CCc2c[nH]c3ccccc23)c1"
(A) 74.8

(Q) Return inhibition (reported value) for this compound: "COc1ccccc1NC(=O)c1cc(-c2cc(OC)c(OC)c(OC)c2)nc2ccccc12"
(A) 1.97

(Q) Return inhibition (reported value) for this compound: "COc1ccc(C(=O)NCCc2c[nH]c3ccccc23)cc1"
(A) 25.8

---

assay: growth inhibition of non-replicating M. tuberculosis (AID 488890); conditions: Mycobacterium tuberculosis non-replicating, at 25 µM, stronger effect = higher value;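 also: plate controls were DMSO cells for no effect and high antibiotic wells for full effect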
About 1,300 (0.41%) of roughly 320,000 compounds were called active. Not shown: some 3% with an inconclusive outcome. Only a sample is shown. Results with a measured potency or affinity are listed apart.
OUTCOME MEASURE: inhibition

Known results for molecules:
[[record]]
molecule = "C[C@@H]1CCCCCCCCC(=O)OCCN(C(=O)OC(C)(C)C)[C@H](C)CCCCCCCCC(=O)OCCN(C(=O)OC(C)(C)C)[C@H](C)CCCCCCCCC(=O)OCCN(C(=O)OC(C)(C)C)[C@H](C)CCCCCCCCC(=O)OCCN1C(=O)OC(C)(C)C"
outcome_measure = "inhibition"
reading = "-3.81%"

[[record]]
molecule = "COc1ccc(N(CC(=O)Nc2ccccc2C)S(=O)(=O)c2c(C)[nH]c(=O)[nH]c2=O)cc1"
outcome_measure = "inhibition"
reading = "8.99%"

[[record]]
molecule = "CN(Cc1ccccc1)C(=O)Nc1ccc(Cl)cc1"
outcome_measure = "inhibition"
reading = "48.8%"


# context switch: different molecule, same inhibition
(Q) Return inhibition (reported value) for this molecule: O=C1Nc2c(c(=O)[nH]c(=O)n2-c2ccc(F)cc2)C1(NS(=O)(=O)c1ccccc1)C(F)(F)F (centres undefined)
(A) -0.54%

---

assay: growth inhibition of non-replicating M. tuberculosis (AID 488890); settings: Mycobacterium tuberculosis non-replicating, at 25 µM, stronger effect = higher value;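 also: plate controls were DMSO cells for no effect and high antibiotic wells for full effect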
Hit rate of the full screen: of about 320,000 compounds, about 1,300 (0.41%) were called active. About 3% were inconclusive and are not listed. The list is a sample of the results. Entries with a potency or affinity are not part of this list.
Criterion: inhibition meeting or surpassing 10%. Met: rule met. Not met: rule not met.

Before answering, review these 3 worked examples.
[[record]]
smiles_text = "Nc1ccccc1Nc1cccc(C(F)(F)F)c1"
discrete_label = "rule met"

[[record]]
smiles_text = "Cn1c(=O)[nH]c2nncnc2c1=O"
discrete_label = "rule met"

[[record]]
smiles_text = "O=C(CCNC(=O)c1ccc([N+](=O)[O-])cc1)Nc1ccc(F)cc1F"
discrete_label = "rule met"


(Q) Say whether "c1ccc(Nc2cccc3c(Nc4ccccc4)cccc23)cc1" shows inhibition of 10% or more.
(A) rule met

(Q) Say whether "COc1ccc(Nc2cccccc2=O)cc1" shows inhibition of 10% or more.
(A) rule not met

(Q) Say whether "Cc1ccc(Nc2ccccc2)cc1" shows inhibition of 10% or more.
(A) rule not met

(Q) Say whether "COc1ccc(NC(=O)CSc2ccc3nnc(-c4ccccn4)n3n2)cc1OC" shows inhibition of 10% or more.
(A) rule not met
